Conditions: in vivo

Smiles Code	half-life
Cc1ncc(CO)c(C=O)c1O	30 to 40 min

* * *

Conditions: plasma
Outcome Measure: half-life (min)

Smiles Code	Outcome Measure	Data Value
Cc1ncc(CO)c(CO)c1O	half-life	12
